Entries annotated with measured protein stability index
B1: PKD2L1 (parent)
chain: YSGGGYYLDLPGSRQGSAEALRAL

Variants of: B1
Protocol summary: protein stability index of a GFP-peptide fusion (GPS, HEK-293T) (PSI 1-6); higher = more stable;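 note: lentivirally expressed fusions sorted by FACS into six bins by GFP to DsRed ratio, PSI derived from sequencing read proportions per bin multiplied by bin number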
Experimental setup: c terminus: a fixed tail appended

{"columns": ["Mutation name", "protein stability index"],
 "data": [
  ["P11Q", 2.53],
  ["L10H", 1.58],
  ["G4N", 1.67],
  ["L24S", 2.41],
  ["A18K", 2.75],
  ["Y1L", 3.1],
  ["P11S", 1.73],
  ["G3M", 2.12]
]}
